- test system: T1, his-tagged human TIGIT (Acro Biosystems #TIT-H52H3) (human, UniProt Q495A1 22-141)
- T1 construct: Bought protein; also called His-tagged-TIGIT (human); not shown: his tag
- T1 sequence (looked up): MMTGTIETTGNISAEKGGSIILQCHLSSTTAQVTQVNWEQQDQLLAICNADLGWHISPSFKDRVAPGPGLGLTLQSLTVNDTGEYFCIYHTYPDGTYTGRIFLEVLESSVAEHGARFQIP
- experiment summary: ELISA, coated His-TIGIT, 1 ug/ml
In this section, each of the binders is paired with its reported Elisa OD450.
Kindly provide the numeric value in OD450 only, without the unit symbol.

These recorded examples may help you get a feel for the data.
- binder: "43645p1.B2 (scFv, V domains shown) VH: EVQLLESGGGLVQPGGSLRLSCATSGFTFSSYWMSWVRQAPGKGLEWVSGIHISDSTYYADSVKGRFTISRDNSKNTLYLQMNSLRAEDTAVYYCAKGHTVLQYGMDVWGQGTTVTVSS VL: QSGLTQPPSASGTPGQRVTISCSGDISNTRNNYVSWYQQLPGTAPKLLIYGNHQRPSGVPDRFSGSKSATSASLAISGLQSEDEADYHCGTWDNTLNAWVFGGGTKLTVL"
  result units: "OD450"
  Elisa OD450: 2.42
- binder: "43645p1.F7 (scFv, V domains shown) VH: EVQLLESGGGLVQPGGSLRLSCAASGFTFSDFWMSWVRQAPGKGLEWVSSIINIQTYDYATYYADSVKGRFTISRDNSKNTLYLQMNSLRAEDTAIYYCAKDVAPGLPGGMDVWGQGTTVTVSS VL: QSVLTQPPSASGTPGQRVTISCSGSNSNIRNNFVSWYQHLPGTAPKLLIYGNSQRPSGVPDRFSGSKSGTSASLAISGLQSEDEADYYCTSWDFSVNGWVFGGGTKLTVL"
  result units: "OD450"
  Elisa OD450: 1.97

Next binder, please.
q: For the binder shown here, 43586p1.1.A7 (scFv, V domains shown) VH: EVQLLESGGGLVQPGGSLRLSCAASGFTFTSYAMSWVRQAPGKGLEWVAGISYDGSIQYYADSVKGRLTISRDNSKNTLNLQMNSLRAGDTAVYYCAKHLTGGTTDYYYYGMDVWGQGTTVTVSS VL: QSVMTQPPSASGTPGQRVTISCSGSSSNIGTNRYVHWYKQVPGTAPKLLIYGNHQRPSGVPDRFSGSKSGTSASLAISGLQSEDEADYYCAAWDGSLSGWVFGGGTKLTVL , give the reported Elisa OD450.
a: 2.01
